B1: TPR t1 (parent)
chain: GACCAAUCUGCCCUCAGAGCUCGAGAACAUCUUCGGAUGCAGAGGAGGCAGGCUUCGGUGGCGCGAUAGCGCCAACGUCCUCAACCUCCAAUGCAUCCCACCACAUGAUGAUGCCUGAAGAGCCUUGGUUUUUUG

variants of: B1; assay: polymerase ribozyme fitness, log enrichment relative to wild type (log ratio); higher = more active; in vitro selection for triplet polymerase activity
Outcome label depends on polymerase ribozyme fitness (log ratio) relative to -2: at/above gives t, below gives f.

INSERT INTO results (variant_label, assigned_label) VALUES
  ('C82G U132A', 't'),
  ('A50G C80G A83G G120C', 'f'),
  ('G10C U38A G63C U130G', 'f'),
  ('G61A C88U U131G', 't'),
  ('C12U A16C U59A U92C C124A', 't'),
  ('A50G G52C G71U C79A G110U', 'f'),
  ('A18C G52A', 'f'),
  ('C49U C62A', 'f'),
  ('U78A A105G', 'f'),
  ('C11U A27U', 't'),
  ('C22A A29G C40G G61U C72A A83U U131A', 'f');
